Experiment: AUC (0 to 8 hrs ) in ICR mouse at 1 mg/kg, po by high-performance LC-tandem MS analysis
Type: ADME, organism-based
Design: time < 8 hr, route oral, dose 1 mg/kg
Conditions: in vivo
reported_property: AUC(0-t) at 8 h (ng·h/mL)

                               smiles_input  measurement_unit  observed
0  COc1ccc(C(=O)N(CC(C)(C)C)c2cccc(C)n2)c(N2CCC(COc3cc([C@@H](CC(=O)O)C4CC4)ccn3)CC2)c1           ng·h/mL      98.7

----------
Experiment: Total clearance in ICR mouse at 0.1 mg/kg, iv by high-performance LC-tandem MS analysis
Type: ADME, organism-based
Conditions: in vivo
reported_property: clearance (mL/min/kg)

>>> print(df.to_string())
                               smiles_input  observed
0  COc1ccc(C(=O)N(CC(C)(C)C)c2cccc(C)n2)c(N2CCC(COc3cc([C@@H](CC(=O)O)C4CC4)ccn3)CC2)c1      43.1
